Assembled from different publications: IC50 for Vascular endothelial growth factor receptor 2 (Homo sapiens).

Query for Vascular endothelial growth factor receptor 2 (Homo sapiens): what IC50 does the record show for Cn1cc(C(F)(F)F)c(-c2ccc(S(=O)(=O)NCc3c[nH]c4ncccc34)s2)n1 ? ≤ 10000 nM

Again, but for Nc1nccc(Oc2ccc3c(c2)OCCN3C(=O)Nc2cccc(C(F)(F)F)c2)n1 37 nM

Again, but for COc1ncnc2[nH]cc(Cc3ccc(NCc4ccc(C(F)(F)F)nc4)nc3)c12 ≤ 10000 nM

====

pIC50: −log10 of the molar value.
Several publications report pIC50 on Vascular endothelial growth factor receptor 2 (Homo sapiens); those values are gathered here.

Solved cases below.
>>> val("Oc1cccc(-c2cnc(Nc3ccccc3)o2)c1")
"> 6.00"
>>> val("CCOc1cc(OCC)cc(C(=O)Nc2ccc(Oc3ccnc(-c4cnn(C)c4)c3)cc2)c1")
"≥ 5.00"
>>> val("Cn1ncnc1-c1cc(Oc2cccc(NC(=O)Nc3ccc(Cl)c(C(F)(F)F)c3)c2)ncn1")
"≥ 5.00"

Item under review: COc1cnc2c(Oc3ccc(NC(=O)c4cnc(C)c(C5=CCCCC5)c4O)cc3F)ccnc2c1 . Reported pIC50? ≥ 7.00

Cool, now COc1cc(OC)cc(N(CCNC(C)C)c2ccc3ncc(C(=O)N4CCN(C)CC4)nc3c2)c1 7.11

Follow-up item: CCCS(=O)(=O)Nc1ccc(F)c(C(=O)c2c[nH]c3ncc(-c4cccc(NS(C)(=O)=O)c4)cc23)c1F ≥ 5.00

Next record, please: CC(C)(C)OC(=O)N[C@H]1CC[C@@H](n2nc(-c3cc4cccnc4[nH]3)c3c(N)ncnc32)CC1 < 4.52

Same thing, different molecule: COc1cc2nccc(Oc3ccc(NC(=O)c4c5n(c(C)c(C6=CCCC6)c4=O)CCOC5)cc3F)c2nc1OC ≥ 7.00
